procedure_details: RAM signaling pathway blockade in yeast – S. cerevisiae, Pdr1DBD-CYC8 efflux-inhibited sensitized strain, primary screen (AID 1298);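 note: 0% = DMSO untreated cells without growth and 100% = 10 µM 1-NA-PP1 full growth; higher means more yeast growth rescued from 5-FOA killing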
measurement_setup: S. cerevisiae cbk1-as DSE1-URA3 strain, 5-FOA growth OD615, 2 d; at 50 µM; stronger effect = higher value
property_label: RAM network inhibition (%)
Answers are plain numbers, in %.

List RAM network inhibition for every entry below, keeping the order given.
1. COc1ccc(C)cc1S(=O)(=O)N1CCN(S(=O)(=O)c2cc(C)ccc2OC)CC1
2. O=C(Nc1nc(-c2ccccn2)cs1)C1CC1
3. O=C(NCCOC(=O)C1COc2ccccc2O1)C1COc2ccccc2O1 (stereo not drawn)
4. N#Cc1cc2c(nc1SCC(=O)N1CCCCC1)CCCC2
5. O=C(NCCSc1c[nH]c2ccccc12)c1ccco1
6. CCOC(=O)N1CCN(CC(O)c2ccc3cc[nH]c3c2)CC1 (stereo not drawn)

A)
3
0.89
0.89
2.13
0.88
1.94

Each of the following entries comes with a recorded value; kindly state RAM network inhibition for each.
1. Cc1ccc(C)c2[nH]c(=O)c(CCNC(=O)c3ccc(S(=O)(=O)N(C)C)cc3)cc12
2. Fc1ccccc1N1CCN(C2CCN(Cc3c[nH]c4ccccc34)CC2)CC1
3. CCOC(=O)c1ccc2[nH]c(C)cc(=O)c2c1
4. COc1ccc(OC)c(-c2nc(C(N)=O)c3[nH]c(=O)n(-c4ccc(F)cc4)c3n2)c1

A)
1: 3.23; 2: 0.22; 3: 9.46; 4: 0.16

Each of the following entries comes with a recorded value; kindly state RAM network inhibition for each.
1. CCOC(=O)c1ccc2ncc(C(=O)OCC)c(NCCN(C)C)c2c1
2. CCn1cc(C(=O)N2CCn3c(nc4ccccc43)C2)c(=O)c2ccc(C)nc21
3. Cc1ccc(N(C)C(=O)N2CCN(S(=O)(=O)c3ccc(C)cc3)CC2)cc1

A)
1. 2.56
2. 0.07
3. 6.2

Look up RAM network inhibition for the entries below, preserving their order.
1. CN(C)c1ccc(S(=O)(=O)c2ccc(Cl)cc2)cc1
2. O=C1NCC2=C1C(c1ccc(Br)cc1)Nc1ccccc1N2 (stereo not drawn)

A)
1. 5.79
2. -2.69

State the recorded RAM network inhibition for every item in the following list.
1. CCN(CCCNS(=O)(=O)c1ccc2c(c1)oc(=O)n2C)c1cccc(C)c1
2. Cc1ccc(C2N(c3ccc(F)cc3)C(=O)C3CCCN32)cc1 (stereo not drawn)

A)
[7.59, 4.87]

Hi! Can you tell me RAM network inhibition for each of these compounds?
1. CCN1CCCC1CNC(=O)Cn1cc2c(n1)CCC(C)C2 (stereo not drawn)
2. CC1(C)CC(=O)c2cnc(NC(=O)Cc3ccc(Cl)cc3)nc2C1
3. CCOC(=O)c1c(C)[nH]c(C(=O)COc2ccc3c(c2)OCO3)c1C
4. CCN(CC)C1=CC(=O)OC12CCCCC2
5. Cc1ccc(N(C(=O)c2ccncc2)C2C=CS(=O)(=O)C2)cc1 (stereo not drawn)

A)
[1.7, 5.3, 5.07, 9.79, 5.22]

Q) Report RAM network inhibition for "CCCCn1c(CN2CCN(c3ccccc3)CC2)nc2c1c(=O)n(C)c(=O)n2C" please.
A) 2.8

###

procedure_details: growth suppression of yeast trafficking mutant, preliminary HTS, modulators of trafficking downstream of Golgi apparatus project, 1536-format plate, OD 615 nm (AID 637)
measurement_setup: yeast transport mutant growth, absorbance 615 nm, 18 h; stronger effect = higher value
Field: inhibition. Provide a value for each of the compounds that follow.
Numbers only, in %.

# compound, property_label, result_number
data = [
    ("O=C(C1CC1)N1CCc2cc(Br)cc(S(=O)(=O)N3CCOCC3)c21", "inhibition", 1.11),
]

Take each entry in turn and give its inhibition.
1. Cc1nnc(SCC(=O)NCc2ccccc2)s1
2. CC(=O)Nc1cccc(NC(=O)CSc2nn3c(=O)c(C)nnc3s2)c1

A)
1. -2
2. -4.33

The following compounds each have a reported value; give each one's inhibition.
1. COc1cc2c(cc1OC)-c1nnc(-c3cccs3)n1C(C)(C)C2
2. Cc1cc(NC(=O)c2cccc(S(=O)(=O)N3CC(c4ccccc4)CC3=O)c2)no1 (stereo unspecified)
3. N#C/C(C(=O)c1ccccc1)=C1/CCCN1
4. CCOC(=O)C1CCN(Cc2ccc(F)c(Br)c2)CC1
5. Cc1cc(N2CCOCC2)nc2ccc(NC(=O)C3CCC(C)CC3)cc12 (stereo unspecified)
6. CCOC(=O)Cn1c(CN(C)Cc2ccccc2)nc2c1c(=O)n(C)c(=O)n2C
7. CCN1C(=O)c2cccc3c(NC(=O)c4ccc(S(=O)(=O)N(C)C)cc4)ccc1c23

A)
1: -4.17; 2: 3.33; 3: 5.08; 4: 9.5; 5: -6.67; 6: 0.18; 7: -7.17

Q) Please report the recorded inhibition for "COc1ccc(-n2nnnc2SCC(=O)N2CCOCC2)cc1" .
A) -0.5

###

procedure_details: viability of HCT116 without oncogenic beta-catenin – human colon tumor cells, pilot screen (AID 823);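 note: 0% = wells killed by 20 µM Hyamine and 100% = untreated DMSO cell wells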
measurement_setup: HCT116 beta-catenin knockout viability, CellTiter-Glo, 60 h; at 10 µM; stronger effect = lower value
Results filed as inconclusive are left out.
property_label: viability (%)
Numbers only, in %.

For orientation, consider the following solved cases.
# molecule, viability [%]
rows = [
    ("O=C(c1ccccc1S(=O)(=O)NCc1ccccc1)N1CCCCC1", 98.6),
    ("O=C(CSc1oc(-c2ccccc2)nc1S(=O)(=O)c1ccc(F)cc1)NCC1CCCO1 (stereo not drawn)", 86.3),
    ("COc1cccc(C2CC(c3ccc(C)cc3)Nc3nc(N)nn32)c1 (stereo not drawn)", 98.6),
    ("c1ccc(C2(Cn3ccc4ccccc43)OCCO2)cc1", 81.6),
    ("COc1ccccc1S(=O)(=O)Cc1ccc(C(=O)N2CCCC2)o1", 108),
    ("COc1ccccc1N1CCN(C(=O)C2CCN(S(=O)(=O)c3ccc(F)cc3)CC2)CC1", 81.2),
    ("O=C(NCCc1ccccc1)C1CCN(C(=O)c2sccc2-n2cccc2)CC1", 101),
    ("COC(=O)CSC1=NS(=O)(=O)c2ccccc21", 99.4),
]

Give me viability for each of these molecules, listed below.
1. CCOc1ccc(C2CC(c3cccc(C)c3)n3nc(N)nc3N2)cc1 (stereo not drawn)
2. COc1ccc(CCNC(=O)C2(C)CCC(=O)N2Cc2ccc3c(c2)OCO3)cc1OC (stereo not drawn)
3. CC(C)NC(=O)c1ccc2c(c1)nnn2C
4. O=C1CC(c2cccnc2)c2cc3c(cc2N1)OCCO3 (stereo not drawn)
5. COc1ccc(C(=O)NCC(=O)NC2=NCCS2)cc1
6. CN(C)S(=O)(=O)c1ccc(C(=O)OCCCN=C2NS(=O)(=O)c3ccccc32)cc1

A)
1. 91.7
2. 102
3. 106
4. 91.5
5. 102
6. 109

Value sought for every listed molecule: viability.
1. CC(=O)Nc1cc(N2C(=O)CCC2=O)ccc1Cl
2. COc1ccc(-c2nc(CCNC(=O)c3ccco3)cs2)cc1OC
3. CCOC(=O)C1CCCN(C(=O)c2cn(C)c(=O)c3cc(OC)c(OC)cc23)C1 (stereo not drawn)
4. COCCN1C(=O)c2oc3ccccc3c(=O)c2C1c1ccc(OC)c(OC)c1 (stereo not drawn)
5. O=C(COc1ccc(=O)n(-c2ccccc2)n1)Nc1ccccc1

A)
102
95.3
97
107
109

###

Give measured viability for each item. Keep answers brief.
procedure_details: MRP1 drug-resistance reversers in H69AR cells – cell-based, doxorubicin co-treatment, pilot screen (AID 601)
measurement_setup: H69AR cells + 2 uM doxorubicin, CellTiter-Glo, 72 h; measured here: viability with 2 uM doxorubicin; at 10 µM; stronger effect = lower value
Give bare numbers, in %.

# smiles_data, unit_abbrev, viability
rows = [
    ("CCCCOCCCNC(=O)COc1ccccc1", "%", 96.4),
    ("Cc1ccc(-c2cc3nc4c(c(=O)n3[nH]2)CCCC4)cc1", "%", 93.4),
    ("Cc1nc2ccccc2c2oc(C(=O)NCCCN3CCCC3=O)cc12", "%", 77.9),
    ("Cc1cc(NS(=O)(=O)c2ccc(NC(=O)COc3ccccc3C(C)C)cc2)no1", "%", 87.6),
    ("O=c1[nH]c(SCc2ccc(F)cc2)nc2c1cnn2-c1ccc(F)cc1", "%", 40.8),
]

--- query ---
Q) Requested field: viability. Item: "CCn1c(=O)cc(OCC(=O)Nc2nc(C)cs2)c2ccccc21"
A) 92.7

###

Could you please report measured viability for the items listed next?
procedure_details: viability of HCT116 without oncogenic beta-catenin – human colon tumor cells, pilot screen (AID 823);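 note: 0% = wells killed by 20 µM Hyamine and 100% = untreated DMSO cell wells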
measurement_setup: HCT116 beta-catenin knockout viability, CellTiter-Glo, 60 h; at 10 µM; stronger effect = lower value
Records with an inconclusive call do not appear.
One number for each entry, in %.

Study these solved cases before continuing.
# molecule, viability (%)
measured = [
    ("CC/C(=C\\C(=O)c1ccncc1)Nc1ccc(O)cc1", 92.8),
    ("C=CCOc1ccc(/C=C/C(C)=N\\O)cc1", 93.2),
]

Hey, quick one: what's viability for each of these?
1. CC(C)(C)n1nc2c(c1NC(=O)c1ccc(Br)cc1)CS(=O)C2 (configuration not stated)
2. COc1ccccc1S(=O)(=O)Cc1ccc(C(=O)NCCN2CCCCCC2)o1
3. C=CCn1c(SCCOC)nc2c1c(=O)[nH]c(=O)n2C
4. COc1ccccc1OCC(=O)N(Cc1nc(-c2ccc(Cl)cc2)no1)C(C)C
5. Cc1ccc(S(=O)(=O)c2nc(-c3ccco3)oc2SCC(=O)NCC2CCCO2)cc1 (configuration not stated)

A)
[107, 104, 99, 84.7, 101]

For each entry beneath this line, provide reported viability.
1. Cc1nc(CC(=O)c2c(C)cc(O)cc2O)cs1
2. CN(C)CCNc1ncnc2c1cnn2-c1ccc(Cl)cc1
3. CCOC(=O)C1CCN(Cc2ccc(OC)c(C)c2OC)CC1
4. Cc1c(C(=O)OC2CCC(C)CC2)[nH]c2c1C(=O)CCC2 (configuration not stated)
5. Cc1ccc(-c2nc3cnccn3c2Nc2ccc3c(c2)OCO3)o1

A)
90.5
4.33
78.3
97.7
95.8

meta.source: PubChem BioAssay
